kon listing for selected binders.
target_entity: T1, recombinant extracellular domain of CD38 (human, UniProt P28907 43-300)
T1 construct: also called CD38 extracellular domain; AtaGenix ATMP00140HU
test_description: Biacore SPR
Give the value in M⁻¹ s⁻¹ but do not write M⁻¹ s⁻¹ after it.

# example entries with known answers
>  <binder>
FTL004-hu-2 (antibody, human IgG1, kappa, V domains shown, also called FLT004-hu-2; FTL004-hum-2) VH: QVQLVQSGSELKKPGASVKVSCKASGYTFTDYNVHWIRQAPGQGLEWIGYFYPRNGATHYAQGFTGRAVLSADTSVSTAYLQISSLKAEDTAVYYCARGETPGTFPYWGQGTLVTVSS VL: DIVLTQSPASLAVSPGQRATITCRASESVDNFGITFMHWYQQKPGQPPKLLIYRASNLESGVPARFSGSGSRTDFTLTINPVEANDTANYYCQQSSKDPRTFGQGTKLEIKR

>  <recorded_metric>
kon

>  <data_value>
344000

$$$$
>  <binder>
FTL004-hu-18 (antibody, human IgG1, kappa, V domains shown, also called FLT004-hu-18; FTL004-hum-18) VH: EVQLVQSGAEVKKPGATVKISCKASGYTFTDYNVHWIQQAPGKGLEWIGYFYPRNGATHYNQKFTGRATLTADTSTDTAYMEISSLRSEDTAVYFCARGETPGTFPYWGQGTLVTVSS VL: DIQLTQSPSSLSASVGDRVTITCQASESVDNFGITFMHWYQQKPGKAPKLLIYRASNLETGVPSRFSGSGSRTDFTFTISSLQPEDIATYYCQQSSKDPRTFGQGTKLEIKR

>  <recorded_metric>
kon

>  <data_value>
189000

$$$$
>  <binder>
FTL004-hu-12 (antibody, human IgG1, kappa, V domains shown, also called FLT004-hu-12; FTL004-hum-12) VH: QVQLVQSGAEVKKPGASVKVSCKASGYTFTDYNVHWIRQAPGQGLEWIGYFYPRNGATHYNQKFTGRATLTVDTSTSTAYMEISSLRSEDTAVYFCARGETPGTFPYWGQGTLVTVSS VL: DIQLTQSPSSLSASVGDRVTITCQASESVDNFGITFMHWYQQKPGKAPKLLIYRASNLETGVPSRFSGSGSRTDFTFTISSLQPEDIATYYCQQSSKDPRTFGQGTKLEIKR

>  <recorded_metric>
kon

>  <data_value>
234000

$$$$
>  <binder>
FTL004-hu-11 (antibody, human IgG1, kappa, V domains shown, also called FLT004-hu-11; FTL004-hum-11) VH: QVQLVQSGAEVKKPGASVKVSCKASGYTFTDYNVHWIRQAPGQGLEWIGYFYPRNGATHYNQKFTGRATLTVDTSTSTAYMEISSLRSEDTAVYFCARGETPGTFPYWGQGTLVTVSS VL: DIQLTQSPSSLSASVGDRVTITCRASESVDNFGITFMHWYQQKPGKAPKLLIYRASNLESGVPSRFSGSGSRTDFTLTISSLQPEDFATYYCQQSSKDPRTFGQGTKLEIKR

>  <recorded_metric>
kon

>  <data_value>
296000

$$$$

Could you now consider this next binder?
GET /value?item= FTL004-hu-9 (antibody, human IgG1, kappa, V domains shown, also called FLT004-hu-9; FTL004-hum-9) VH: QVQLVQSGAEVKKPGASVKVSCKASGYTFTDYNVHWIRQAPGQGLEWIGYFYPRNGATHYNQKFTGRATLTVDTSTSTAYMEISSLRSEDTAVYFCARGETPGTFPYWGQGTLVTVSS VL: EIVLTQSPATLSLSPGERATLSCRASESVDNFGITFMHWYQQKPGQAPRLLIYRASNLESGIPARFSGSGSRTDFTLTISSLEPEDFAVYYCQQSSKDPRTFGQGTKLEIKR &field=kon returns 230000
